# Target entity: T1, O3-bP
# T1 chain: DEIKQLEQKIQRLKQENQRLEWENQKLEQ
# Method notes: two-hybrid library CCNG1;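 note: natural log of median RNA to DNA barcode read ratio; higher means stronger binding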
Assay endpoint: interaction score

Study these solved cases before continuing.
| Binder | interaction score |
| --- | --- |
| DENKQLEQEIQRLEQENQRLEWKIQKLKQ [O14-bP] | -0.787 |
| DKNKQLKQENQRLEQEIQRLEWEIQKLEQ [O1-bP] | -1.35 |
| DEIAQLEQEIAELKQKNAELEWKIAQLKQ [4H118-bA] | -1.86 |
| DENKQLEQKNQRLKQKIQRLKWKIQKLKQ [O2-bP] | -0.635 |
| DEIKQLEQENQRLEQKIQRLKWENQKLEQ [O15-bP] | -0.872 |
| DKNKQLKQENQRLEQKIQRLKWKIQKLKQ [O10-bP] | -0.676 |
| DKNKQLKQKIQRLKQKNQRLKWEIQKLEQ [O13-bP] | -1.76 |
| DKIKQLKQKNQRLKQEIQRLEWKNQKLKQ [O16-bP] | -1.06 |

1 = DEIKQLEQKIQRLKQKNQRLKWKNQKLKQ [O12-bP]
2 = DKIKQLKQEIQRLEQENQRLEWENQKLEQ [O11-bP]
3 = DEIKQLEQKIQRLKQENQRLEWENQKLEQ [O3-bP]
INPUT: Ascending by interaction score, please. List each label, following the requested order.
OUTPUT: 1, 3, 2
